targetOrSystem: Ceramide transfer protein (Homo sapiens)
assayMethodText: Inhibition of fluorescent ceramide probe binding to recombinant His-tagged START domain of CERT (unknown origin) assessed as bound fluorescent ceramide probe level at 200 pmol preincubated for 30 mins followed by ceramide probe addition after 30 mins by FLINT assay (reference value: 28.4 +/- 2.75%)
Design: scale not given: the % may be the effect or the level left
quantityKind: Activity (%)

- smilesRepr: "O[C@H]1[C@H](O)CNC[C@@H]1O"
  quantityKind: "Activity"
  measureUnit: "%"
  resultValue: 36.6
- smilesRepr: "CCCCCCCCCCCCO[C@@H]1CNC[C@@H](O)[C@@H]1O"
  quantityKind: "Activity"
  measureUnit: "%"
  resultValue: 61.3
- smilesRepr: "CCCCCCCCCCCCO[C@H]1CNC[C@@H](OCCCCCCCCCCCC)[C@@H]1O"
  quantityKind: "Activity"
  measureUnit: "%"
  resultValue: 51.1

meta.source: ChEMBL document CHEMBL3994663
